Reported melting point values follow for various compounds

Worked set:
CCOc1ccc(C2C(=O)Oc3ccc(C)cc32)cc1 (stereo unspecified)    82 to 86 °C
c1ccc(COc2cc3ccncc3cc2OCc2ccccc2)cc1    97 °C
COC(=O)c1ccc(CC2=CCc3ccc(NC(=O)CC4CCCC4)cc32)c(OC)c1    178 to 179 °C
CN(C)CCNC(=O)N1CCN(c2ccc(Cl)c(Cl)c2)CC1    80 to 83 °C
COc1ccc(-c2nc3cc(Cl)ccc3o2)cc1OC    142 to 145 °C
CCC(=O)Nc1cscn1    129 to 132 °C

Item under review: `C[C@H]1C=CC2=C[C@@H](O)C[C@H](O)[C@@H]2[C@H]1CC[C@@H]1C[C@@H](O)CC(=O)O1` . Reported melting point? 161 to 163 °C

Item under review: `COc1ccc(CN(CCN(C)CCCCNC(=NCCCOc2cccc(CN3CCCCC3)c2)NC#N)c2ccccn2)cc1` . Reported melting point? 106 to 108 °C

Item under review: `Cc1cc(CCCCCOc2c(Cl)cc(-c3nc(C)c(C)s3)cc2Cl)on1` . Reported melting point? 57 to 58 °C

Item under review: N#Cc1cccc(NC(=O)NC2N=C(CN3CCOCC3)c3ccccc3NC2=O)c1 (stereo unspecified) . Reported melting point? 249 to 250 °C

Item under review: `COc1cc(Nc2c(C#N)cnc3cc(-c4ccc(C(=O)O)cc4)ccc23)c(Cl)cc1Cl` . Reported melting point? 282 to 283 °C

Item under review: `CCn1cc(C(=O)C(Cl)Cl)c(=O)c(-c2cccc(C(F)(F)F)c2)c1` . Reported melting point? 108 to 110 °C

Item under review: `O=C(O)C#Cc1c(Cl)cc(Cl)cc1Cl` . Reported melting point? 170 to 175 °C

Item under review: CC(=O)OC1(C(C)CN(C)C)CCCCC1c1ccccc1 (single isomer, unassigned; (-)) . Reported melting point? 63 to 66 °C

Item under review: CCOC(=O)C(OC)c1nn(-c2ccc(Cl)cc2)c2c1CCCC2 (stereo unspecified) . Reported melting point? 86 to 87 °C

Each recorded value in this set is attributed to a melting point compilation (Tetko et al.; mined from patent text by program, amines drawn as free bases though some values may be those of a salt).
